For each entry below, report its EC50 value.
# System: recombinant NL4-3 virus (nef section replaced with Renilla luciferase gene) in MT-2 cells
# test description: whole plant or invertebrate
# Format: cell-based, HIV
# assay context: NL43, luciferase activity in MT-2 cells infected 4-5 days with recombinant NL4-3 virus, read-out: EC50
Where a name gives a salt, the structure may show the parent alone.

Solved entries (count: 5):
* Cc1ccccc1S(=O)(=O)NC(=O)N[C@@H](Cc1ccccc1)c1nccn1-c1cccc(Cl)c1 | 50 nM
* COc1ccc(-c2cccnc2[C@H](Cc2cc(F)cc(F)c2)NC(=O)NS(=O)(=O)c2ccccc2C)cc1 [Example 96, TFA] | 590 nM
* Cc1nc2cc(-n3ccnc3[C@H](Cc3ccccc3)NC(=O)NS(=O)(=O)c3ccccc3C)ccc2s1 | 50 nM
* COc1ccc(-n2ccnc2C(Cc2cc(F)cc(F)c2)NC(=O)NS(=O)(=O)c2ccccc2F)cc1 (racemic) | 690 nM
* CCOc1ccc(-c2cccnc2[C@H](Cc2cc(F)cc(F)c2)NC(=O)NS(=O)(=O)c2ccccc2C)cc1F [Example 123, TFA] | 600 nM

Go through the list and state EC50 for each entry.
1. Cc1ccccc1S(=O)(=O)NC(=O)N[C@@H](Cc1ccccc1)c1nccn1-c1ccc(-c2ccsc2)cc1
2. CCOc1cccc(-n2ccnc2[C@H](Cc2ccccc2)NC(=O)NS(=O)(=O)c2ccccc2C)c1
3. Cc1ccccc1S(=O)(=O)NC(=O)N[C@@H](Cc1ccccc1)c1nccn1-c1ccc([N+](=O)[O-])cc1
4. O=C(N[C@H](Cc1cc(F)cc(F)c1)c1ncccc1-c1c[nH]c2ccccc12)NS(=O)(=O)c1ccccc1Cl [Example 102, TFA]
5. CCOc1ccc(-c2cccnc2C(Cc2ccccc2)NC(=O)NS(=O)(=O)c2ccccc2C)cc1 (centres unmarked)

### Response
30 nM
600 nM
190 nM
11500 nM
420 nM

Go through the list and state EC50 for each entry.
1. Cc1ccccc1S(=O)(=O)NC(=O)N[C@@H](Cc1ccccc1)c1nccn1-c1ccc2c(c1)CCO2
2. Cc1ccccc1S(=O)(=O)NC(=O)N[C@@H](Cc1ccccc1)c1nccn1-c1ccc2c(c1)OCO2

### Response
1. 10 nM
2. 70 nM

Go through the list and state EC50 for each entry.
1. O=C(NC(Cc1ccccc1)c1ncccc1-c1ccc2ccncc2c1)NS(=O)(=O)c1ccccc1Cl (stereo in doubt) [Example 108, TFA]
2. CCOc1ccc(-c2cccnc2[C@@H](Cc2ccccc2)NC(=O)NS(=O)(=O)c2ccccc2C)cc1 [Example 105, TFA]

### Response
["20000 nM", "16700 nM"]

---

For each entry below, report its pEC50 value.
# Tested on: recombinant NL4-3 virus (nef section replaced with Renilla luciferase gene) in MT-2 cells
# test description: whole plant or invertebrate
# Format: cell-based, HIV
# assay context: NL43, luciferase activity in MT-2 cells infected 4-5 days with recombinant NL4-3 virus, read-out: Activity
pEC50: −log10 of the molar value.

* Cc1ccccc1S(=O)(=O)NC(=O)N[C@@H](Cc1ccccc1)c1nccn1-c1ccc2c(c1)OCCO2 [Example 22] | 6.00 to 7.00
* Cc1ccccc1S(=O)(=O)NC(=O)N[C@@H](Cc1ccccc1)c1nccn1-c1cccc(OC(F)(F)F)c1 [Example 19] | 6.00 to 7.00
* COC(=O)Nc1ccc(-n2ccnc2[C@H](Cc2ccccc2)NC(=O)NS(=O)(=O)c2ccccc2OC)cc1 [Example 44] | > 7.00

Then there is this compound:
### Prompt Can you share its pEC50? I mean this compound: COc1ccc(-n2ccnc2[C@H](Cc2ccccc2)NC(=O)NS(=O)(=O)c2cccc(Cl)c2Cl)cc1 [Example 56]
### Response > 7.00

Values were extracted from patent US9855230B2.
